Every entry's value here was drawn from paper PMC5735376.

- Method notes: Statistical comparison of equilibrium solubility data sets (Mann-Whitney test / two-sample t-test)
- Type: physicochemical
- Study conditions: current dual level DoE; where significant, fasted solubility lower than fed
Property measured: statistical comparison of fasted against fed equilibrium solubility

{"columns": ["Compound", "Value reported"],
 "data": [
  ["CCOC(=O)C1=C(C)NC(C)=C(C(=O)OC)C1c1cccc(Cl)c1Cl (stereo not shown)", "significant difference"],
  ["COc1cc(C(=O)NS(=O)(=O)c2ccccc2C)ccc1Cc1cn(C)c2ccc(NC(=O)OC3CCCC3)cc12", "significant difference"],
  ["CN1CC(=O)N2[C@H](c3ccc4c(c3)OCO4)c3[nH]c4ccccc4c3C[C@@H]2C1=O", "significant difference"]
]}
